system: NCI/ADR-RES ovarian; test: NCI tumour cell line growth inhibition, 48 h
Think of 20 µM as a floor: if TGI stands on it or above, it is 1 (yes); beneath it, 0 (no).

Is TGI at least 20 µM? Consider CCCSc1cc(Cl)nc(N)n1 1 (yes)

Is TGI at least 20 µM? Consider COc1ccc(-c2cc(-c3cc(Cl)ccc3Cl)nc3nc(=S)[nH]c(N)c23)cc1 1 (yes)

Is TGI at least 20 µM? Consider CC(C)(C)OC(=O)c1ccc(NCc2cc(O)ccc2O)cc1 0 (no)

Is TGI at least 20 µM? Consider CC12CCC(C/C1=N\NC(N)=O)C2(C)C (stereo unspecified) 1 (yes)

Is TGI at least 20 µM? Consider CCOC(=O)c1csc(NC(=O)CCCC#N)n1 1 (yes)

Is TGI at least 20 µM? Consider c1ccc(-c2ccc(N=NN3CCCC3)cc2)cc1 1 (yes)

Is TGI at least 20 µM? Consider O=C(O)c1cc2ccccc2c(S(=O)(=O)O)c1O 1 (yes)

Is TGI at least 20 µM? Consider COP(=O)(CC(=O)C1OC(OCc2ccccc2)C(OCc2ccccc2)C(OCc2ccccc2)C1OCc1ccccc1)OC (stereo unspecified) 1 (yes)

Is TGI at least 20 µM? Consider CCCS(=O)(=O)c1nc(NC2CC2)cc(-c2ccc3c(ccn3C3CC(C)(C)NC(C)(C)C3)c2)n1 0 (no)

Is TGI at least 20 µM? Consider C(=N/Nc1ccc(-c2nc3ccccc3[nH]2)cc1)/c1c(-c2ccccc2)[nH]c2ccccc12 0 (no)

Is TGI at least 20 µM? Consider COc1cc(-c2cn(C)c(=O)c(C)c2C)cc(OC)c1CN1CC[C@H](N2CCN(c3ccc(N[C@H]4CCC(=O)NC4=O)cc3F)CC2)C(F)(F)C1 1 (yes)

Is TGI at least 20 µM? Consider COc1cc2c3c(n(CCCN4CCC(N)CC4)c(=O)c2cc1OC)-c1cc2c(cc1C3=O)OCO2 1 (yes)

Is TGI at least 20 µM? Consider COn1cc(CO)c2ccccc21 1 (yes)

Is TGI at least 20 µM? Consider CCN(C(=O)N[C@H](C(=O)N[C@@H](C)C(=O)OC)C(C)C)c1ccccc1 1 (yes)

Is TGI at least 20 µM? Consider COC(=O)NC/C=C\c1nc(CC/C=C\C(=O)OC2CC3CC(=O)O[C@@H](/C=C/CC(C)C)C[C@@H]4CCC(C)C(C[C@@H](OC)CC(C2)O3)O4)co1 (stereo partly specified) 1 (yes)

Is TGI at least 20 µM? Consider COCC(=O)OC1CCn2c1nc1c2C(=O)C(C)=C(NC(C)=O)C1=O (stereo unspecified) 1 (yes)

Is TGI at least 20 µM? Consider COC(=O)c1c(O)ccc2[nH]c(C)c(C#N)c12 1 (yes)

Is TGI at least 20 µM? Consider NCCN1CCN(c2nccc(-c3ccc4ccccc4c3)n2)CC1 0 (no)

Is TGI at least 20 µM? Consider COC(=O)/C=C\S/C(=C(/c1ccccc1)n1ccc(C(=O)OC)n1)c1ccccc1 1 (yes)

Is TGI at least 20 µM? Consider FC(F)(F)c1ccc2c(Nc3cccc(C4CC(c5ccccc5)=NN4c4ccc(Cl)cc4)c3)ccnc2c1 (stereo unspecified) 0 (no)
